Test system: Saccharomyces cerevisiae
Assay procedure: protein stability index of tFT-peptide fusion (C-terminal peptide) (PSI (0-1 scale)); higher = more stable (slower turnover)
Condition summary: genetic background: wild type; temperature: 30 C
Metric: protein stability index

Please review the following examples before continuing.
>>> measurement("PPLRPPPLHPPR")
0.705
>>> measurement("PDRQNLSRPEKD")
0.702

Query sequence follows.
Input line: Fill in reported protein stability index for this entry: RAIPRPLPPRRI
Output line: 0.716

###

Tested on: Saccharomyces cerevisiae;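 note: PSI is a weighted mean of sequencing reads over stability bins, variants kept only with over 10 reads, mCherry proximal and sfGFP distal, peptide attached via GGGS linker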
Assay procedure: protein stability index of tFT-peptide fusion (C-terminal peptide) (PSI (0-1 scale)); higher = more stable (slower turnover)
Condition summary: genetic background: wild type; temperature: 30 C
Metric: protein stability index

Some sequences with recorded protein stability index:
>>> measurement("FLIRSSQSFELE")
0.715
>>> measurement("TRCDSSGGSAAP")
0.68
>>> measurement("LPNTWLTSLIHQ")
0.701

Input line: Using the record for QRGRGGRHVTDI , state its measured protein stability index.
Output line: 0.71
